- Study System: WRN [UniPro: Q14191 (WRN_HUMAN), N500-C946] (Homo sapiens (Human), UniProt Q14191)
- Sequence (Q14191 500-946): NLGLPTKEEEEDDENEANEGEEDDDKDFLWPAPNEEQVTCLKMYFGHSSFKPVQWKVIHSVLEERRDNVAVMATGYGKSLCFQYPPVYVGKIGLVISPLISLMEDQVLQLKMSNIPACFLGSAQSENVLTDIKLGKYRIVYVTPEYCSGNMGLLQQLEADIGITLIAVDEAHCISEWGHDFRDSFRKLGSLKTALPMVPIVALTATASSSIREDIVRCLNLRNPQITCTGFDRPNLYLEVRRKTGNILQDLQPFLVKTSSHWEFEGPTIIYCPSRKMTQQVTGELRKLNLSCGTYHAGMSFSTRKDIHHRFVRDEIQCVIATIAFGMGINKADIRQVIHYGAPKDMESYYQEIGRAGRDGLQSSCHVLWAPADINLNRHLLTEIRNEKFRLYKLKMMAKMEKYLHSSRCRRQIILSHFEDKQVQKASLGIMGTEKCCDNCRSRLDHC
- Method Summary: WRN unwinding assay (FORKF DNA, fluorescence)
- Assay type: biochemical
- Measurement Context: Table 14
pIC50: −log10 of the molar value.
Readout Name: pIC50

// solved cases for pIC50 follow
| Compound | Study System | pIC50 |
| --- | --- | --- |
| CCc1c(N2CCN(C(=O)c3cccc(C)c3O)CC2)c(=O)n2nc(C3=CCOCC3)nc2n1CC(=O)Nc1ccc(C(F)(F)F)cc1Cl [Example 60] | WRN [UniPro: Q14191 (WRN_HUMAN), N500-C946] (Homo sapiens (Human), UniProt Q14191) | 6.00 to 7.00 |
| CCc1c(N2CCN(C(=O)C(=O)NC3CCCC3)CC2)c(=O)n2nc(C3=CCOCC3)nc2n1CC(=O)Nc1ccc(C(F)(F)F)cc1Cl [Example 357] | WRN [UniPro: Q14191 (WRN_HUMAN), N500-C946] (Homo sapiens (Human), UniProt Q14191) | 6.00 to 7.00 |
| CCc1c(N2CCN(C(=O)c3cccc(=O)[nH]3)CC2)c(=O)n2nc(C3=CCOCC3)nc2n1CC(=O)Nc1ccc(C(F)(F)F)cc1Cl [Example 78] | WRN [UniPro: Q14191 (WRN_HUMAN), N500-C946] (Homo sapiens (Human), UniProt Q14191) | > 7.00 |
| CCc1c(N2CCN(C(=O)NCC3CC3)CC2)c(=O)n2nc(C3=CCOCC3)nc2n1CC(=O)Nc1ccc(C(F)(F)F)cc1Cl [Example 24] | WRN [UniPro: Q14191 (WRN_HUMAN), N500-C946] (Homo sapiens (Human), UniProt Q14191) | 6.00 to 7.00 |
| CCc1c(N2CCN(C(=O)C(C)NC(=O)c3ccccc3)CC2)c(=O)n2nc(C3=CCOCC3)nc2n1CC(=O)Nc1ccc(C(F)(F)F)cc1Cl (stereo not drawn) [Example 136] | WRN [UniPro: Q14191 (WRN_HUMAN), N500-C946] (Homo sapiens (Human), UniProt Q14191) | 6.00 to 7.00 |
| [2H]C([2H])(NC(=O)c1ccccc1F)C(=O)N1CCN(c2c(CC)n(CC(=O)Nc3ccc(C(F)(F)F)cc3Cl)c3nc(N4CCOCC4)nn3c2=O)CC1 [Example 138] | WRN [UniPro: Q14191 (WRN_HUMAN), N500-C946] (Homo sapiens (Human), UniProt Q14191) | > 7.00 |
| CCc1c(N2CCN(C(=O)CNC(=O)c3ccccc3F)CC2)c(=O)n2nc(C3=CCOCC3)nc2n1CC(=O)Nc1nnc(C(F)(F)F)s1 [Example 155] | WRN [UniPro: Q14191 (WRN_HUMAN), N500-C946] (Homo sapiens (Human), UniProt Q14191) | < 6.00 |
| CCc1c(N2CCN(C(=O)C(=O)N3CCOCC3)CC2)c(=O)n2nc(C3=CCOCC3)nc2n1CC(=O)Nc1ccc(C(F)(F)F)cc1Cl [Example 356] | WRN [UniPro: Q14191 (WRN_HUMAN), N500-C946] (Homo sapiens (Human), UniProt Q14191) | < 6.00 |

In the following, a different compound is considered.
Asked: Lab note: need pIC50 with WRN [UniPro: Q14191 (WRN_HUMAN), N500-C946] (Homo sapiens (Human), UniProt Q14191) for entry CCc1c(N2CCN(C(=O)C3CCC(=O)N3)CC2)c(=O)n2nc(C3=CCOCC3)nc2n1CC(=O)Nc1ccc(C(F)(F)F)cc1Cl (stereo not drawn) [Example 66] , please look it up.
Given back: < 6.00
